These entries and their values trace back to patent US20210139545A1.

For each of the binders below, state its (Δ(A405-A595)/Δt)max.
# subject-of-test: T1, E. coli alkaline phosphatase Strep-tag®II fusion protein (E. coli, UniProt P00634 22-471 = phosphatase)
# T1 construct: mature; also called BAP-StrepII; BAP-StrepIII
# method-summary: ELISA, mutein coated, BAP-StrepII titrated
Only the number, expressed in mOD, is required.

# input For the binder mutein“1”-m23 (designed binder, Library 3 clone on mutein “1”) EAGITGTWYNQLGSTFIVTAGADGALTGTYVTARGNAESRYVLTGRYDSAPATDGSGTALGWTVAWKNNYRNAHSATTWSGQYVGGAEARINTQWLLTSGTTEYNAYASTLVGHDTFTKVKPSAAS , what (Δ(A405-A595)/Δt)max is on record?
# output 968

# input For the binder mutein“1”-m111 (designed binder, Library 5 clone on mutein “1”) EAGITGTWYNQLGSTFIVTAGADGALTGTYVTARGNAESRYVLTGRYDSAPATDGSGTALGWTVAWKNNYRNAHSATTWSGQYVGGAEARINTQWLLTSGTTEYNALWSTLVGHDTFTKVKPSAAS , what (Δ(A405-A595)/Δt)max is on record?
# output 492

# input For the binder mutein“1”-m207 (designed binder, Library 6 clone on mutein “1”, 118 and 119 deleted) EAGITGTWYNQLGSTFIVTAGADGALTGTYVTARGNAESRYVLTGRYDSAPATDGSGTALGWTVAWKNNYRNAHSATTWSGQYVGGAEARINTQWLLTSGTTETWLSTLVGHDTFTKVKPSAAS , what (Δ(A405-A595)/Δt)max is on record?
# output 493

# input For the binder mutein“1”-m101 (designed binder, Library 5 clone on mutein “1”) EAGITGTWYNQLGSTFIVTAGADGALTGTYVTARGNAESRYVLTGRYDSAPATDGSGTALGWTVAWKNNYRNAHSATTWSGQYVGGAEARINTQWLLTSGTTEYNAFLSTLVGHDTFTKVKPSAAS , what (Δ(A405-A595)/Δt)max is on record?
# output 589
